- System: AKT3
- setupConditions: concentration: 1 μM, replicates: in singlicate; n = 1
Catalogue of %Inh values
Numbers only here, please. The scale is %.

Some compounds with recorded %Inh:
[
  {
    "compound": "COC(=O)c1cccc(NC(=O)NCCNc2ccnc(Nc3ccc(F)cc3)n2)c1",
    "outputUnit": "%",
    "%Inh": 0
  },
  {
    "compound": "O=C(Nc1ccccc1)Nc1ccc(Oc2ccc3nccn3n2)cc1",
    "outputUnit": "%",
    "%Inh": 10
  }
]

Please give measured %Inh of the following entry: O=C(Nc1ccccc1F)NC1CCN(c2ccnc(Nc3ccc(F)cc3)n2)C1 (centres unmarked)
0

====

- System: ULK2
- setupConditions: concentration: 1 μM, replicates: in singlicate; n = 1
# key: entry, value: %Inh

Take a look at these entries with their results.
[
  {
    "compound": "O=C(Nc1ccccc1)Nc1ccc(Oc2ccc3nccn3n2)cc1",
    "%Inh": "0%"
  },
  {
    "compound": "O=c1cc(N2CCOCC2)nc2n(Cc3cccc(Cl)c3)ccn12 [GSK2296823]",
    "%Inh": "0%"
  },
  {
    "compound": "COc1ccc(NC(=O)c2ccc(-c3cc(-c4nnc(C)o4)ccc3C)cc2)cc1 [GW595885]",
    "%Inh": "0%"
  }
]

// output %Inh; input CSc1ccc(NC2=C(c3ccccc3Cl)C(=O)NC2=O)cc1 [SB-342411] ; system ULK2
0%

# return %Inh of CN1c2ccc(-c3ccc(C(=O)NCCO)cc3)cc2-c2[nH]ncc2S1(=O)=O (system: ULK2)
30%

Enter measured %Inh, system ULK2, for the compound shown: Fc1ccc(Nc2nccc(-c3c(-c4ccc(Cl)cc4)nn4ncccc34)n2)cc1F [GW829058]
100%

Look up and report measured %Inh (ULK2) for the following compound: CC(=O)Nc1n[nH]c2ncc(-c3ccccc3)cc12 [SB-548492]
35%

Please tell me the measured %Inh for CC(C)(C)c1ccc(-n2cnc3c(N)ncnc32)cc1 [SKF-97263] ; system: ULK2.
4%

Please report the measured %Inh for COc1ccc(-c2oc3ncnc(N)c3c2-c2ccc(OC)cc2)cc1 [SB-589132] tested on ULK2.
0%

====

# %Inh annotations
- Test system: RIPK4
- setupConditions: concentration: 1 μM, replicates: in singlicate; n = 1
Output spec: scalar in %, unitless text.

Past entries and their recorded results:
[
  {
    "molSmiles": "Clc1cc(Nc2ncnc3cc[nH]c23)ccc1OCc1ccccn1",
    "%Inh / %": 23
  },
  {
    "molSmiles": "Cc1ccc(C)c(NC(=O)NCCNc2ccnc(Nc3ccc(F)cc3)n2)c1",
    "%Inh / %": 0
  },
  {
    "molSmiles": "Nc1nc(-c2cccnc2)c(-c2ccnc3ccccc23)s1",
    "%Inh / %": 0
  },
  {
    "molSmiles": "CCn1c(-c2ccncc2)nc2cnccc21",
    "%Inh / %": 10
  },
  {
    "molSmiles": "OCCOCCn1ccc2ncnc(Nc3ccc(Oc4cccc(Cl)c4)c(Cl)c3)c21",
    "%Inh / %": 0
  }
]

Determine from records and report %Inh for O=C(Nc1ccccc1)Nc1ccc(Oc2ccc3nccn3n2)cc1
0

Indicate its recorded %Inh; the compound in question is CNc1nccc(-c2c(-c3ccc(F)cc3)ncn2C2CCN(C)CC2)n1
0

Item Cc1cc(N2CCC(NS(=O)(=O)c3ccc(F)cc3)CC2)nc(Nc2cccc(C#N)c2)n1.O=C(O)C(F)(F)F : provide %Inh
4

Supply measured %Inh of FC(F)(F)c1ccc(-c2cc(-c3c[nH]nc3-c3ccccn3)ccn2)cc1 in your reply.
2

====

- Test system: CDC2L2
- setupConditions: concentration: 1 μM, replicates: in singlicate; n = 1
# reported %Inh; entries follow
Give the value, in units of %, as a plain number.

[
  {
    "molecule": "Cc1ccc(O)cc1Nc1cc(C(F)(F)F)nc2ccc(-c3ccncc3)cc12 [GW630823]",
    "measuredNumber": 0
  },
  {
    "molecule": "CC(C)N1CCC(n2cnc(-c3ccc(F)cc3)c2-c2ccnc(N)n2)CC1 [SB-223132]",
    "measuredNumber": 19
  },
  {
    "molecule": "COc1ccc(NC(=O)Nc2ccc(C)c(-c3ccc(C(=O)Nc4ccncc4)cc3)c2)cc1 [GSK1398475]",
    "measuredNumber": 34
  },
  {
    "molecule": "CCCc1ccc(S(=O)(=O)NC2CCN(c3ccnc(Nc4ccc(OC)cc4)n3)C2)cc1 (centres unmarked) [GSK1379737]",
    "measuredNumber": 0
  },
  {
    "molecule": "FC(F)(F)c1cc(Nc2nccc(-c3c(-c4ccc(Cl)cc4)nn4ncccc34)n2)ccc1Cl [GW829351]",
    "measuredNumber": 0
  },
  {
    "molecule": "Fc1cccc(COc2ccc(Nc3ncnc4sc(-c5ccc[nH]5)cc34)cc2Cl)c1 [GW707818]",
    "measuredNumber": 15
  }
]

Please report %Inh with CDC2L2 for item CSc1ccc(NC2=C(c3ccccc3Cl)C(=O)NC2=O)cc1 [SB-342411] .
0

State measured %Inh of the molecule CCc1nc(-c2cccc(N(C)S(=O)(=O)c3ccccc3)c2)c(-c2ccnc(Nc3ccc(N4CCN(C(C)=O)CC4)nc3)n2)s1 [GSK1645895] with CDC2L2.
16

Answer briefly: %Inh recorded on CDC2L2 for CS(=O)(=O)CCNCc1ccc(-c2ccc3ncnc(Nc4ccc(OCc5ccccc5)c(Cl)c4)c3c2)o1.Cl [GW574783]
0

Answer briefly: %Inh recorded on CDC2L2 for COc1ccc(NC(=O)c2ccc(-c3cc(-c4nnc(C)o4)ccc3C)cc2)cc1 [GW595885]
0

Answer briefly: %Inh recorded on CDC2L2 for Cl.Cn1ccc(-c2cccc(Nc3ccnc4cc(-c5nccs5)ccc34)c2)n1 [GW525701]
0

Param request: %Inh | system CDC2L2 | item O=c1cc(N2CCOCC2)nc2n(Cc3cccc(Cl)c3)ccn12 [GSK2296823]
6

Give %Inh only, for Cl.c1ccc(Cn2ncc3cc(Nc4ncnc5ccccc45)ccc32)cc1 [GW273749] , using CDC2L2 data.
19

====

- Test system: CLK4
- setupConditions: concentration: 1 μM, replicates: in singlicate; n = 1
Define the label as Condition met when %Inh is strictly less than 20% and as Condition not met in all remaining cases.

[
  {
    "compound": "CN1c2ccc(-c3ccc(C(=O)NCCO)cc3)cc2-c2[nH]ncc2S1(=O)=O",
    "answerLabel": "Condition not met"
  },
  {
    "compound": "CSc1nn2c(=O)cc(N3CCOCC3)nc2n1Cc1cccc(Cl)c1Cl [GSK2347225]",
    "answerLabel": "Condition met"
  },
  {
    "compound": "Cl.Cl.c1ccc(-c2cc3ccncc3cc2OC2CCNCC2)cc1 [GSK1122999]",
    "answerLabel": "Condition not met"
  },
  {
    "compound": "C[C@H]1CC[C@@H](C(=O)Nc2ccccc2)CN1c1cc(-c2ccc3c(N)n[nH]c3c2)nc(N)n1 [GSK2283293]",
    "answerLabel": "Condition not met"
  },
  {
    "compound": "Cl.O=S(=O)(c1cccc(F)c1)c1ccc(Nc2ncnc3cc(Br)sc23)cc1Cl [GSK306886]",
    "answerLabel": "Condition met"
  }
]

Next item in the queue.
Just wondering, is %Inh of CC(C)(C)OC(=O)NC1CCCN(c2cc(-c3ccc4c(N)n[nH]c4c3)nc(N)n2)C1 (stereo not drawn) [GSK2286096] below 20%?
Condition met

====

Recorded below: Kd, system DDR1.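 Further: kd values determined as follow-up on hits from a single-replicate KINOMEscan panel screen.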
Entry rule: numbers only, all in µM.

Please review the entries below; each comes with its answer.
[
  {
    "compound": "COc1ccc(-c2oc3ncnc(N)c3c2-c2ccc(OC)cc2)cc1 [SB-589132]",
    "measuredNumber": 0.65
  },
  {
    "compound": "Cn1ccc2ncnc(Oc3ccc(NC(=O)Nc4cccnc4)c(Cl)c3)c21",
    "measuredNumber": 0.057
  },
  {
    "compound": "Cc1ccc(NC(=O)c2cccc(C#N)c2)cc1-c1ccc(C(=O)Nc2ccncc2)cc1 [GSK1398463]",
    "measuredNumber": 0.022
  },
  {
    "compound": "O=C(Nc1ccccc1)Nc1ccc(Oc2ccc3nccn3n2)cc1",
    "measuredNumber": 0.0093
  }
]

Here's the next entry for you.
Input Cn1cc(-c2ccc3c(c2)CCN3C(=O)Cc2cccc(C(F)(F)F)c2)c2c(N)ncnc21 [GSK2606414] , output reported Kd.
0.28

====

- Test system: ABL2
- setupConditions: concentration: 1 μM, replicates: in singlicate; n = 1
Quick list: %Inh per entry.
// units = %; emit number, no label

[
  {
    "molSmiles": "COc1cc2c(Nc3cccc(NC(=O)c4ccccc4)c3)ncnc2cc1OCCCN1CCOCC1",
    "measuredNumber": 21
  },
  {
    "molSmiles": "Oc1ccc2ncnc(Nc3ccc(OCc4ccccc4)cc3)c2c1",
    "measuredNumber": 7
  },
  {
    "molSmiles": "N#Cc1ccc(Oc2ccc(Nc3ncnc4cc[nH]c34)cc2Cl)cc1",
    "measuredNumber": 12
  },
  {
    "molSmiles": "FC(F)(F)c1cc(Nc2nccc(-c3c(-c4ccc(Cl)cc4)nn4ncccc34)n2)ccc1Cl",
    "measuredNumber": 0
  }
]

Now let's try a different one.
Specify %Inh for O=C(CCO)NCCn1ccc2ncnc(Nc3ccc(Oc4cccc(C(F)(F)F)c4)c(Cl)c3)c21 and stop.
0
